biological target: T1, 006 PSMA Fab (biotinylated (site not stated)); assay: clonal phage ELISA, biotinylated PSMA Fab on neutravidin plate, anti-M13 HRP detection, no PSMA antigen
T1 construct: Biotinylated PSMA Fab captured on neutravidin coated plates in the clonal phage ELISA; also called Anti-PSMA Fab; anti-PSMA Fab
Where no end group is shown, it is not given here.
phage binding ELISA signal for assorted binders
Please reply with the value in numeric form only.

{"BINDER": "APVFCKPAWMCPWL [Phage-3121]", "phage binding ELISA signal": 2.07}
{"BINDER": "FHIMCQPEWMCLGF [Phage-3116]", "phage binding ELISA signal": 2.08}
{"BINDER": "SMHWCEPMWMCAGF (cysteine pairing not given here; also: fused to phage pIII, orientation and linker not given here) [Phage-3124]", "phage binding ELISA signal": 2.07}
{"BINDER": "VNVKCVPSWMCSGF (cysteine pairing not given here; also: fused to phage pIII, orientation and linker not given here) [Phage-3125]", "phage binding ELISA signal": 2.07}
{"BINDER": "FEILCRPLWMCSGF (cysteine pairing not given here; also: fused to phage pIII, orientation and linker not given here) [Phage-3126]", "phage binding ELISA signal": 2.06}

// next item, phage binding ELISA signal requested
QUERY: Query: phage binding ELISA signal; subject: SGALCVPLWMCTGF [Phage-3117]
RESULT: 2.07
